Hey, just so you know, these numbers are from ChEMBL document CHEMBL6092201.

- experimental target: Mu-type opioid receptor (Homo sapiens) (UniProt P35372)
- Sequence (P35372 whole entry): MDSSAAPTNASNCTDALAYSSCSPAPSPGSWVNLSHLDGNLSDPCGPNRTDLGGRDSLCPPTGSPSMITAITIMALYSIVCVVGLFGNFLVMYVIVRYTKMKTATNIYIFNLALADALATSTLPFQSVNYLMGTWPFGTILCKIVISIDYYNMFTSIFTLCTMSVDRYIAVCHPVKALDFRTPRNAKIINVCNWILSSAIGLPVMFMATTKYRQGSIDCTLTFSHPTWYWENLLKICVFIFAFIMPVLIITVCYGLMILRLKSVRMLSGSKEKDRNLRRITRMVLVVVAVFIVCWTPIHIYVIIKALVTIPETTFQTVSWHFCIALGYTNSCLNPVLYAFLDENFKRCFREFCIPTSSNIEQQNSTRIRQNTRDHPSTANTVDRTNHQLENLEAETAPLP
- assay overview: Agonist activity at MOR (unknown origin) assessed as beta-arrestin2 recruitment at 0.1 uM incubated for 90 to 180 mins by chemiluminescence based microplate reader assay relative to control
- Format: functional
- run conditions: time 90-180 min
reported endpoint: Activity (%)
# output: bare number, implied unit %

Below, 4 compounds whose answers are already recorded.
compound: COc1ccc(CN/C(=N\C#N)NC[C@H](Cc2ccccc2)N(C)C)cc1
unit string: %
Activity: -0.9
--
compound: CC(Cc1c[nH]cn1)N/C(=N\C#N)NC[C@H](Cc1ccccc1)N(C)C (stereo not given in full)
unit string: %
Activity: -0.5
--
compound: CC(Cc1ccncc1)N/C(=N\C#N)NC[C@H](Cc1ccccc1)N(C)C (stereo not given in full)
unit string: %
Activity: -1.1
--
compound: CN(C)[C@H](CN/C(=N/C#N)NCCc1ccc(O)cc1)Cc1ccccc1
unit string: %
Activity: -0.9

[in] What reported Activity corresponds to CN(C)[C@H](CN/C(=N/C#N)NCCc1ccccc1)Cc1ccc(O)cc1 on Mu-type opioid receptor (Homo sapiens) (UniProt P35372)?
[out] -0.9

====

List of Activity values.
- experimental target: Mu-type opioid receptor (Homo sapiens)
- assay overview: Agonist activity at MOR (unknown origin) assessed as beta-arrestin2 recruitment at 0.1 uM incubated for 90 to 180 mins by chemiluminescence based microplate reader assay relative to control
- Assay type: functional
- run conditions: time 90-180 min
Your answer should be a plain number; it is taken to be in %.

Below, each entry is followed by its recorded Activity result.
molecule: COc1ccccc1N/C(=N\C#N)NC[C@H](Cc1ccc(O)cc1)N(C)C
Activity, %: -1.2

molecule: CN(C)[C@H](CN/C(=N/C#N)Nc1ccccc1)Cc1ccccc1
Activity, %: -0.5

molecule: COc1ccc2cc(CC(C)N/C(=N\C#N)NC[C@H](Cc3ccccc3)N(C)C)ccc2c1 (stereo not given in full)
Activity, %: -1

molecule: CN(C)[C@H](CN/C(=N/C#N)NCCc1ccccc1)Cc1ccccc1
Activity, %: -0.9

molecule: CC(Cc1ccsc1)N/C(=N\C#N)NC[C@H](Cc1ccccc1)N(C)C (stereo not given in full)
Activity, %: -1

molecule: CC(Cc1cc[nH]n1)N/C(=N\C#N)NC[C@H](Cc1ccccc1)N(C)C (stereo not given in full)
Activity, %: -0.4

[in] Sample CC(Cc1cccnc1)N/C(=N\C#N)NC[C@H](Cc1ccccc1)N(C)C (stereo not given in full) — what was its Activity?
[out] -1.1

[in] Can you share its Activity? I mean this molecule: COc1cccc(CCN/C(=N\C#N)NC[C@H](Cc2ccccc2)N(C)C)c1
[out] -1

[in] What does the data say about its Activity? Entry: COc1ccccc1N/C(=N\C#N)NC[C@H](Cc1ccccc1)N(C)C
[out] -0.8

[in] Returns the measured Activity for the input molecule. Input: CC(Cc1c[nH]c2ccccc12)N/C(=N\C#N)NC[C@H](Cc1ccccc1)N(C)C (stereo not given in full)
[out] -0.9

====

- experimental target: Mu-type opioid receptor (Homo sapiens) (UniProt P35372)
- assay overview: Agonist activity at MOR (unknown origin) assessed as cAMP accumulation at 0.5 nM relative to control
- Type: functional
Each item that follows carries a reported Activity.

Please review the entries below; each comes with its answer.
molecule: CC(Cc1cccs1)N/C(=N\C#N)NC[C@H](Cc1ccccc1)N(C)C (stereo not given in full)
Activity: 12.4%
--
molecule: CC(Cc1cccnc1)N/C(=N\C#N)NC[C@H](Cc1ccccc1)N(C)C (stereo not given in full)
Activity: 9.3%
--
molecule: CN(C)[C@H](CN/C(=N/C#N)NCCc1cccc(F)c1)Cc1ccccc1
Activity: 7.4%
--
molecule: CC(Cc1ccsc1)N/C(=N\C#N)NC[C@H](Cc1ccccc1)N(C)C (stereo not given in full)
Activity: -0.8%

Here's the next entry for you.
[in] Bench note: what Activity did COc1ccc(CN/C(=N\C#N)NC[C@H](Cc2ccc(O)cc2)N(C)C)cc1 show?
[out] 18.5%
